Give IC50 for every item shown.
System: MIA PaCa-2
assay.info: Cytotoxicity against human MIAPaCa2 cells measured after 48 hrs by MTT assay
Assay type: functional, cell-based
study.conditions: MIA PaCa-2, 48 h

The reported IC50 of the molecule COc1ccc(C(=O)/C=C/c2ccc(OCc3cn(Cc4cccc(F)c4)nn3)cc2)cc1 was 15 µM

get_value(item= Oc1cccc(-c2nc(N3CCOCC3)c3oc4ncccc4c3n2)c1 , readout=IC50) returns 6 µM

Briefly, IC50 measured for COc1ccc(C(=O)/C=C/c2ccc(OCc3cn(Cc4ccccc4Br)nn3)cc2)cc1 : 10 µM

IC50 in this record for COc1ccc(C(=O)/C=C/c2ccc(OCc3cn(Cc4ccc(Br)cc4)nn3)cc2)cc1 : 8 µM

Value of measured IC50 for the entry COc1ccc(C(=O)/C=C/c2ccc(OCc3cn(Cc4ccccc4)nn3)cc2)cc1 : 4 µM

The molecule listed as COc1ccc(C(=O)/C=C/c2ccc(OCc3cn(Cc4cccc(Br)c4)nn3)cc2)cc1 has a reported IC50 of 10 µM
